Test system: Escherichia coli ATCC 25922
Assay Text: Minimum inhibitory concentration (MIC), CLSI broth micro-dilution, E. coli
Format: cell-based
Test Conditions: Escherichia coli, ATCC25922, Table 6, cation adjusted Mueller Hinton Broth + 0.002% Tween-80, 35° C., 22 hours
Measure Name: MIC (µM)
# value in µM; strip the unit string

# compound Cc1nc(-c2ccc(C(C)(C)C)cc2)ncc1C(=O)N[C@@H](CCNC=O)C(=O)N(C)[C@@H]1C(=O)N[C@@H](C)C(=O)N[C@H](C(=O)NCC#N)Cc2ccc(OCCN)c(c2)-c2cc1ccc2OCCN (racemic) ; its MIC = 1.1

// MIC value for Cc1nc(-c2ccc(C(C)(C)C)cc2)nc(C)c1C(=O)N[C@@H](COC(C)(C)C)C(=O)N[C@@H](CCN)C(=O)N(C)[C@@H]1C(=O)N[C@@H](C)C(=O)N[C@H](C(=O)NCC#N)Cc2ccc(OCCN)c(c2)-c2cc1ccc2OCCN (racemic) : 1.5

Reported MIC for CNC(=N)NCCOc1ccc2cc1-c1cc(ccc1OCCNC(=N)NC)[C@H](N(C)C(=O)[C@H](CCN)NC(=O)c1c(C)nc(-c3ccc(C(C)(C)C)cc3)nc1C)C(=O)N[C@@H](C)C(=O)N[C@H](C(=O)NCC#N)C2 (racemic) was 0.38

# MIC of Cc1nc(-c2ccc(OC3(C)CC3)cc2)nc(C)c1C(=O)N[C@@H](CCN)C(=O)N(C)[C@@H]1C(=O)N[C@@H](C)C(=O)N[C@H](C(=O)NCC#N)Cc2ccc(OCCN)c(c2)-c2cc1ccc2OCCN (racemic) = 0.38

----------
Tested on: Escherichia coli ATCC 25922
Assay Text: Minimum inhibitory concentration (MIC), CLSI broth micro-dilution, E. coli
Format: cell-based
Test Conditions: Escherichia coli, ATCC25922, Table 6, cation adjusted Mueller Hinton Broth + 0.002% Tween-80, 35° C., 22 hours
Protocol: In vitro antimicrobial activity of each compound was determined by measuring minimal inhibitor concentrations (MICs) using the broth micro-dilution technique as approved by the Clinical and Laboratory Standards Institute (CLSI) (Methods for Dilution Antimicrobial Susceptibility Tests for Bacteria that Grow Aerobically; Approved Standard-Eighth Edition. CLSI document M07-A8. Wayne, PA: Clinical and Laboratroy Standards; 2009). […]
Measure Name: MIC (µM)
Lab book: enter the figure in µM, no units written.

MIC of C=Cc1ccc(C#Cc2nc(C)c(C(=O)N[C@@H](CCN)C(=O)N(C)[C@@H]3C(=O)N[C@@H](C)C(=O)N[C@H](C(=O)NCC#N)Cc4ccc(OCCN)c(c4)-c4cc3ccc4OCCN)c(C)n2)cc1 (racemic) [Compound 310] , assay on Escherichia coli ATCC 25922, is 0.53

Readout MIC for Cc1nc(-c2ccc(C3(C(F)(F)F)CC3)cc2)ccc1C(=O)N[C@@H](CCN)C(=O)N(C)[C@@H]1C(=O)N[C@@H](C)C(=O)N[C@H](C(=O)NCC#N)Cc2ccc(OCCN)c(c2)-c2cc1ccc2OCCN (racemic) [Compound 211] , test system Escherichia coli ATCC 25922, was 0.17

MIC of Cc1c(C(=O)N[C@@H](CCN)C(=O)N(C)[C@@H]2C(=O)N[C@@H](C)C(=O)N[C@H](C(=O)NCC#N)Cc3ccc(OCCN)c(c3)-c3cc2ccc3OCCN)cnn(-c2ccc(C(C)(C)C)cc2)c1=O (racemic) [Compound 387] , assay on Escherichia coli ATCC 25922, is 8

Query CCCCCCCCc1ccc(C(=O)N[C@@H](CCCNC(N)=O)C(=O)N(C)[C@@H]2C(=O)N[C@@H](C)C(=O)N[C@H](C(=O)NCC#N)Cc3ccc(OCCN)c(c3)-c3cc2ccc3OCCN)c(C)c1 (racemic) [Compound 450] on Escherichia coli ATCC 25922; MIC returned: 2.1
